experiment: protein stability index of a GFP-peptide fusion (GPS, HEK-293T) (PSI 1-6); higher = more stable; settings: treatment: MLN4924 1 uM, 8 h; c terminus: a fixed tail appended;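 further: 24-mer peptide tiles fused after GFP, lentivirally expressed, FACS-sorted into six equal bins by GFP/DsRed ratio, decoded by Illumina sequencing, PSI is the read-weighted mean bin number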
Measured protein stability index, listed per entry for reference.

sequence chain: NVKLQELINHKKAEDTEKKDEPSK [CEP70]
protein stability index: 5.2
//
sequence chain: TAKRINRTSLSSGATVRSFSINSR [CDC14A]
protein stability index: 3.6
//
sequence chain: FTCDEENVFAAVGRGLYVYSLQMK [WDR41]
protein stability index: 2.38
//
sequence chain: SSCNGPGQTTGHPYYLRSFLVVLK [FAN1]
protein stability index: 2.51
//
sequence chain: SKCLVDDGTGRMPTLKKCEDVARP [GALNT9]
protein stability index: 4.54
//
sequence chain: AMEVNTSASEILYSAPPGDPLSTN [NFE2L1]
protein stability index: 4.55
//
sequence chain: YSDRTNIISKPVPQTLIMAYDYAK [FEM1C]
protein stability index: 2.49
//
sequence chain: NIHQLQNRLSELEVANKDLTERKY [SASS6]
protein stability index: 3.62
//
sequence chain: SGACGAFVHGLEDEMYEVRIAAVE [INTS4]
protein stability index: 2.73
//
sequence chain: ANPSIRDKEGYNSIHYAAAYGHRQ [ANKRD44]
protein stability index: 3.6
//
sequence chain: TREKAKFSDGEKCRREAFRRLGNG [PHTF1]
protein stability index: 3.62
//
sequence chain: PPFMIALACLHVACVVQQKDARQW [CCNC]
protein stability index: 3.08
//
sequence chain: KLPLPIALRSHLKSFSMANGLNAR [RAB40B]
protein stability index: 2.46

====

experiment: protein stability index of a GFP-peptide fusion (GPS, HEK-293T) (PSI 1-6); higher = more stable; settings: treatment: MLN4924 1 uM, 8 h; c terminus: a fixed tail appended
# key: entry, value: protein stability index

sequence chain: GLAIHCMQVHKETIDAVPNAIPGR [ZNF207]
protein stability index: 3.04
--
sequence chain: YSENAPFHLSLFQGWMNLLNMAKK [PLD5]
protein stability index: 2.23
--
sequence chain: QMELLLVNKLKWNLAAMTPHDFIE [CCND1]
protein stability index: 2.71
--
sequence chain: PLSPPPINYNGIFSLKQEETLDYG [NEUROD6]
protein stability index: 4.36
--
sequence chain: EAEDQEEKEDAEKENIEKDEDDVD [SRPK2]
protein stability index: 5.79
--
sequence chain: EREAEKEQKRLERLQRKLVEPKHC [SDE2]
protein stability index: 4.82
--
sequence chain: SSTSGGSGYGFRPSMVSGGYVANS [KRT71]
protein stability index: 3.46
--
sequence chain: PPLRNYFLEEDNYKNIKRPPGDIM [USP39]
protein stability index: 3.37
--
sequence chain: SAVADKLDNSRSILKRRYYRQHCT [CTDNEP1]
protein stability index: 3.7
--
sequence chain: SESRGSSGRVKRERDREREPEAAS [USP39]
protein stability index: 5.59
--
sequence chain: EATKEVHTQAENAEFMRNFQKGQV [HMOX1]
protein stability index: 5.21
--
sequence chain: IFIIQACRGNQHDVPVIPLDVVDN [CASP6]
protein stability index: 2.49
--
sequence chain: ASETFNYSAIDRVKSRGKRLALEK [PI4K2A]
protein stability index: 4.4

====

This listing pairs sequences with measured protein stability index.
assay: protein stability index of a GFP-peptide fusion (GPS, HEK-293T) (PSI 1-6); higher = more stable; settings: treatment: DMSO; c terminus: a fixed tail appended

sequence chain: LQKDLETRPTQHELRLYKQQVKKL [CEP70]
protein stability index: 4.19
--
sequence chain: LLYSEVTASSLVKINLQGDIVDRG [ADD1]
protein stability index: 2.85
--
sequence chain: NLLNMAYGVKSPLSLIARFSPIAI [ELAVL3]
protein stability index: 2.83
--
sequence chain: IFCRDTQTVFQKKNLQQTTNTTST [IQUB]
protein stability index: 3.32
--
sequence chain: FPNQKSEAAEPPKTPPSSCDSTNA [KMT5A]
protein stability index: 5.52
--
sequence chain: APLQSVFQGQKTELNNCISMLVAG [TRIM63]
protein stability index: 2.85
--
sequence chain: HETESTSDKETDIDDRYGDLDSRT [CDS1]
protein stability index: 5.42
--
sequence chain: DVFERDWYSPYAKTLQPTKQPNCS [PLD5]
protein stability index: 3.49
--
sequence chain: YEKKFDTFIPLEPLPQIPNLPFWV [SPATS1]
protein stability index: 2.24
--
sequence chain: ELLVYIVFLVDICLLTYGMTSSSA [PKD2L1]
protein stability index: 3.19
--
sequence chain: ILDIHFLSQADFLVCTFSSQVCRV [FUT8]
protein stability index: 3.52
--
sequence chain: DLEPGVLMSAQTITSETTSTTTTT [EPB41L3]
protein stability index: 5.19
--
sequence chain: NPMDMGTIKKRLENNYYWSASECM [BRD3]
protein stability index: 2.34

====

assay: protein stability index of a GFP-peptide fusion (GPS, HEK-293T) (PSI 1-6); higher = more stable; conditions: treatment: DMSO; c terminus: a fixed tail appended

sequence chain: GLNLGKKISVPRDVMLEELSLLTN [MYOZ1]
protein stability index: 2.72
//
sequence chain: EENMERIGEEVRQLMEKLREKQLS [BEX1]
protein stability index: 4.57
//
sequence chain: SPDLEWHAACLKCAECSQYLDETC [ISL2]
protein stability index: 4.04
//
sequence chain: LCPGDLIQAINGESTELMTHLEAQ [PDLIM4]
protein stability index: 4.51
//
sequence chain: EFLTNELSRKLMQLQHEKAELEQH [CCDC6]
protein stability index: 2.98
//
sequence chain: GGVLIDRYGRRTAIILSSCLLGLG [SLC2A12]
protein stability index: 2.86
//
sequence chain: AEWLLAVRSIQPEEKERIGQFVFA [AASDHPPT]
protein stability index: 2.29
//
sequence chain: PERSYVFNGDFVDRGKDSVEILMI [PPEF2]
protein stability index: 2
//
sequence chain: RMAAPRAEALFDFTGNSKLELNFK [NCF4]
protein stability index: 3.33
//
sequence chain: LPLAEREHVSRALCIHTGRELRCK [TRIB1]
protein stability index: 3.99
//
sequence chain: AMPDPAGPDGHLPAVATLCDLFDR [ESRRA]
protein stability index: 4.27
//
sequence chain: MQQFLQKALEILRKDFSELRSAGV [FAM50A]
protein stability index: 3.67
//
sequence chain: IIVSIVHSVFEFLAFKNDIQFWNS [CLPTM1]
protein stability index: 3.5

====

Known protein stability index of a selection of sequences
assay: protein stability index of a GFP-peptide fusion (GPS, HEK-293T) (PSI 1-6); higher = more stable; conditions: treatment: MLN4924 1 uM, 8 h; c terminus: a fixed tail appended

sequence chain: PSDLDQFSDSSLIEDSQALHKRPK [LURAP1L]
protein stability index: 5.43
//
sequence chain: TQAHIQECKHPSVFQHGDNSFRLL [MCOLN1]
protein stability index: 2.92
//
sequence chain: GGRDFSAPLTISRVHAGSKAALAA [PDLIM4]
protein stability index: 3.85
//
sequence chain: REHAKARVDHGAEIITQSPGRSSV [MAP2]
protein stability index: 4.89
//
sequence chain: ATQIQQLLQDKQFELALQLAEMKD [VPS39]
protein stability index: 3.41
//
sequence chain: HSVTGFLCEPDPVHFSEAIEKFIR [ALG2]
protein stability index: 2.93
//
sequence chain: FTVNPKPRVEYIDRPRCCLRGKEC [BTBD1]
protein stability index: 3.23

====

experiment: protein stability index of a GFP-peptide fusion (GPS, HEK-293T) (PSI 1-6); higher = more stable; details: treatment: MLN4924 1 uM, 8 h; c terminus: a fixed tail appended
experimental readout: protein stability index

sequence chain: FAPLWEVFRVSSDKLALCHLELTR [FCHO1]
experimental readout: protein stability index
endpoint value: 2.52
//
sequence chain: SYLHAKKYLKPSGNMFPTIGDVHL [CARM1]
experimental readout: protein stability index
endpoint value: 2.64
//
sequence chain: SPHSPDSSQSSLAQEEEEEDQGRT [DDIT3]
experimental readout: protein stability index
endpoint value: 5.54
//
sequence chain: TSDAAFLTQWKDSLVSLVLYNMDL [ZER1]
experimental readout: protein stability index
endpoint value: 2.56
//
sequence chain: TAIRQLTEPSGRVAKKTPTKRSTL [C2CD2L]
experimental readout: protein stability index
endpoint value: 4.44
//
sequence chain: TYAMGHLIQRKKVHVFGDELSLVT [TNFSF13B]
experimental readout: protein stability index
endpoint value: 2.42
//
sequence chain: EKNFFPEYNYDWWEKKPFSEDVNW [CHGB]
experimental readout: protein stability index
endpoint value: 2.76
//
sequence chain: NIYETGDVCISILHPPVDDPQSGE [CDC34]
experimental readout: protein stability index
endpoint value: 4.51
//
sequence chain: VQVLTMGNDTSPSEGTNLNAPNSL [HNF4A]
experimental readout: protein stability index
endpoint value: 4.02
//
sequence chain: AEWLLAVRSIQPEEKERIGQFVFA [AASDHPPT]
experimental readout: protein stability index
endpoint value: 2.13
//
sequence chain: VTLAAHFLGLGAPNCLSMGSRCLK [ZBED1]
experimental readout: protein stability index
endpoint value: 2.19
//
sequence chain: PVRKLYDDCSSTIVEDPQTKCEYM [ESRRG]
experimental readout: protein stability index
endpoint value: 4.64
//
sequence chain: ITESFTELARIVLLRHGMDRLWRP [RAB40B]
experimental readout: protein stability index
endpoint value: 2.86
//
sequence chain: QRPRFITSGGSNIIYVASNHFVWR [VPS39]
experimental readout: protein stability index
endpoint value: 2.49
//
sequence chain: TRKHYQVTGYGINGTGDSNDFWRI [POMT2]
experimental readout: protein stability index
endpoint value: 2.32
//
sequence chain: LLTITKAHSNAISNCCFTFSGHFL [WDR88]
experimental readout: protein stability index
endpoint value: 2.59
//
sequence chain: KRQVTHFQFLSWPDYGVPSSAASL [PTPN9]
experimental readout: protein stability index
endpoint value: 2.38
//
sequence chain: VKRKKNVLRLCCKKLKIFAMPMQD [PRAME]
experimental readout: protein stability index
endpoint value: 2.2
//
sequence chain: AQTFLFQGQPVVNRPLSLKDQQTF [TRADD]
experimental readout: protein stability index
endpoint value: 3.39
//
sequence chain: AQVFPESPESESDHEHEEADLELS [GNAS]
experimental readout: protein stability index
endpoint value: 5.46
//
sequence chain: RTADEATNTGPAGSSASTSPAPLD [DYRK1B]
experimental readout: protein stability index
endpoint value: 5.34
//
sequence chain: LENLCENASTLRTINIKCHVHDPH [FBXO39]
experimental readout: protein stability index
endpoint value: 3.59
//
sequence chain: PTPKCLRLCFFPFVENGHSESSGQ [CFHR2]
experimental readout: protein stability index
endpoint value: 2.72
//
sequence chain: MQQFLQKALEILRKDFSELRSAGV [FAM50A]
experimental readout: protein stability index
endpoint value: 3.03
//
sequence chain: RCRLSLDDRVLSSLVRDTIARVHG [POP5]
experimental readout: protein stability index
endpoint value: 2.35
//
sequence chain: AFRSDDTKGHPRAVSQPFRLSSSL [CDC14A]
experimental readout: protein stability index
endpoint value: 3.47
//
sequence chain: ISSSSFGAEPSAPGGGGSPGACPA [RTN3]
experimental readout: protein stability index
endpoint value: 4.97
